Conditions: in ethyl formate, 293.15 K
parameter: solubility (mole fraction)
Please give only the number in your answer, with no unit.

Quick note, solubility (mole fraction) for CCOc1ccc(C=O)cc1O landed at 0.0196

###

Settings: in isopropyl acetate, 318.15 K
parameter: solubility (mole fraction)

// sample CCOc1ccc(C=O)cc1O , its solubility (mole fraction) was 0.0387

###

Settings: in ethyl acetate, 293.15 K
parameter: solubility (mole fraction)
Number only, no unit.

Field solubility (mole fraction) (entry CCOc1ccc(C=O)cc1O ) reads 0.0212

###

Conditions: in methanol, 293.15 K
parameter: solubility (mole fraction)
Number only, no unit.

Kindly note the recorded solubility (mole fraction) for CCOc1ccc(C=O)cc1O , which is 0.0119
